Measured on: Env of HIV-1 strain ZM53M.PB12 (HIV-1)
Protocol text: cell-based or functional assay
Readout label: neutralization IC50

>>> result("γ20κ11 (antibody, V domains shown) VH: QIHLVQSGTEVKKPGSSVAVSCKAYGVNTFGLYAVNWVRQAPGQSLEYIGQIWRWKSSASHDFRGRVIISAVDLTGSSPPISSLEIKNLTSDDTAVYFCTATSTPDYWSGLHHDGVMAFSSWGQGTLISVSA VL: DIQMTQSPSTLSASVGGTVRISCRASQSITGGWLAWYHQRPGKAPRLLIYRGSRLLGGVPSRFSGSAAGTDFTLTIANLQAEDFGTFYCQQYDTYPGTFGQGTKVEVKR")
"> 15 µg/mL"
>>> result("γ3κ5 (antibody, V domains shown) VH: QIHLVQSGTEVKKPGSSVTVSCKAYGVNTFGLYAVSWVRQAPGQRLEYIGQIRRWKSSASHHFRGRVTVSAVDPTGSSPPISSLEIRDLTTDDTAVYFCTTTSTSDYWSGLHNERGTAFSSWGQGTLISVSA VL: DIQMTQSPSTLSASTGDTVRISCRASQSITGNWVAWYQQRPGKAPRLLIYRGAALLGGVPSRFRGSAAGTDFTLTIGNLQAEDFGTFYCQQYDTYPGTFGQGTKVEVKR")
"> 15 µg/mL"
>>> result("γ23κ18 (antibody, V domains shown) VH: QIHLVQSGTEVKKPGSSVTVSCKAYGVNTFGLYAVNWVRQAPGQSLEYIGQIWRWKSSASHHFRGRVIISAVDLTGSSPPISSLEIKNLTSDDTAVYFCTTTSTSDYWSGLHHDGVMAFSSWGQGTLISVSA VL: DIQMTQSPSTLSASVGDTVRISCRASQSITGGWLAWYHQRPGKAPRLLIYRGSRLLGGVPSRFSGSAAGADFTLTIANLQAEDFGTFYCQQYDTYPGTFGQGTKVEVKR")
"> 15 µg/mL"
>>> result("γ46κ18 (antibody, V domains shown) VH: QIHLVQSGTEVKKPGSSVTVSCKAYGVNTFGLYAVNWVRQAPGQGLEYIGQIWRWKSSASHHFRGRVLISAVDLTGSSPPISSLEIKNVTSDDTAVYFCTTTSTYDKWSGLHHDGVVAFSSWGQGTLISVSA VL: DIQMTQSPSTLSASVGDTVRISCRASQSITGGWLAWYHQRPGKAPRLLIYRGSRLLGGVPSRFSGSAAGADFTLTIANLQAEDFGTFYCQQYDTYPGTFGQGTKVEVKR")
"> 15 µg/mL"
>>> result("γ22κ18 (antibody, V domains shown) VH: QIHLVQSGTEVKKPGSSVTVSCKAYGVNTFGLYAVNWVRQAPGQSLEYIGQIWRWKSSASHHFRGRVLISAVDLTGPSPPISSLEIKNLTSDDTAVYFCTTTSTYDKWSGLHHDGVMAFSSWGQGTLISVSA VL: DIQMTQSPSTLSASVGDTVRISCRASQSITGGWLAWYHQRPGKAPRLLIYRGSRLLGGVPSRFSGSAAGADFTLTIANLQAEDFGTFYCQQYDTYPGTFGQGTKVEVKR")
"> 15 µg/mL"

Values were extracted from patent US20180171001A1.
